B1: DNA replication regulator protein HobA (Helicobacter pylori), O25828 (parent)
chain: MKNFYDWIKEFVRDQGEFIAQQSGWLELERSSYAKLIAQTISHVLNGGSLLVSADSSRHWFLNYILSNLNPKDLKERPLLSVIDFNASSFYPKNDANLSLATIEMTYQNPMFWHVGKIENEGLKTILLSKIPSFLWLFEELKEDCLLLKEHDSLLDYKLLQLFKLFENALFSVLYNKVTL
partner: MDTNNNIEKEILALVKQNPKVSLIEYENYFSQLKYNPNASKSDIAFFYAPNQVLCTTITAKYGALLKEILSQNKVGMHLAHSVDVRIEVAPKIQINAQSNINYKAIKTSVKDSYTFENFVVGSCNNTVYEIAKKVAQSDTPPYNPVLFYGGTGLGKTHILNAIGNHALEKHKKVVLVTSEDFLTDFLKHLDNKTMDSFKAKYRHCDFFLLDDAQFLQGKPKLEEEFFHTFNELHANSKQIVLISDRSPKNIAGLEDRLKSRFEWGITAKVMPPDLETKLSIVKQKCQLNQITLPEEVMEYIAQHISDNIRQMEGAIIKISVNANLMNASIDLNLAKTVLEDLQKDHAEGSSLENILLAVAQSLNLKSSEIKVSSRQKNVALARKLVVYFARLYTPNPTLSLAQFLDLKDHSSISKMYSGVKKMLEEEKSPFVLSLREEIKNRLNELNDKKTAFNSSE

# Variants of: B1
# conditionDetails: with dnaa_helpy dnaA
endpointName: effect of a mutation on the interaction

As a guide, the following entries are already answered.
>>> resultvalue("S88P")
"disrupting interaction"
>>> resultvalue("H43R")
"decreasing interaction"
>>> resultvalue("L137P")
"decreasing interaction"
>>> resultvalue("F138S")
"decreasing interaction"
>>> resultvalue("S67P")
"decreasing interaction"

Please look at this variant and report its effect of a mutation on the interaction: L69P
disrupting interaction

Please look at this variant and report its effect of a mutation on the interaction: L127P
disrupting interaction

Please look at this variant and report its effect of a mutation on the interaction: F166S
decreasing interaction
